Target: eqBuChE (Equus caballus)
Construct: serum horse BuChE (eqBuChE)
Sequence (P81908 whole entry): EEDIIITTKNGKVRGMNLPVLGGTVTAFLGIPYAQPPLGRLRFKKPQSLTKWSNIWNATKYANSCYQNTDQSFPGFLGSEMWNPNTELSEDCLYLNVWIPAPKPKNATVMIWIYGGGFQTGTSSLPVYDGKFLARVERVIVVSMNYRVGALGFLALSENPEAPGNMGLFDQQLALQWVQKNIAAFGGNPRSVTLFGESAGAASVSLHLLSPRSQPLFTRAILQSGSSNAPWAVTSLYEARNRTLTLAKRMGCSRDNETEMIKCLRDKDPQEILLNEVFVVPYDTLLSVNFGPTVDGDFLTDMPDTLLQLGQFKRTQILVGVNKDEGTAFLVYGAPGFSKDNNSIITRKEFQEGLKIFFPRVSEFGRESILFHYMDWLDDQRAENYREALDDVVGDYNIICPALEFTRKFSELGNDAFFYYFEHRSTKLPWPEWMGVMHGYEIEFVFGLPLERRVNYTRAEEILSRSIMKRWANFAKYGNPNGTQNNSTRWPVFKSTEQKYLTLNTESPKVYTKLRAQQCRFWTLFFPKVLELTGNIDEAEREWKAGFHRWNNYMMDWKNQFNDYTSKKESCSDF
Experiment: biochemical
Settings: mean ± SEM
METRIC NAME: IC50 (µM)
I only need the number, in µM, no unit after it.

[
  {
    "MOLECULE": "Cc1ccc(C2c3oc(CO)cc(=O)c3Oc3nc4c(c(N)c32)CCCC4)cc1 (centres unmarked)",
    "METRIC NAME": "IC50",
    "OBSERVED RESULT": 10.1
  },
  {
    "MOLECULE": "Nc1c2c(nc3c1C(c1ccccc1Cl)c1oc(CO)cc(=O)c1O3)CCCC2 (centres unmarked)",
    "METRIC NAME": "IC50",
    "OBSERVED RESULT": 8.54
  },
  {
    "MOLECULE": "Nc1c2c(nc3c1C(c1ccccc1F)c1oc(CO)cc(=O)c1O3)CCCC2 (centres unmarked)",
    "METRIC NAME": "IC50",
    "OBSERVED RESULT": 6.69
  },
  {
    "MOLECULE": "Nc1c2c(nc3c1C(c1cccc(Br)c1)c1oc(CO)cc(=O)c1O3)CCCC2 (centres unmarked)",
    "METRIC NAME": "IC50",
    "OBSERVED RESULT": 3.9
  }
]

Turning now to a further molecule:
Field IC50 (eqBuChE (Equus caballus)), entry COc1ccc(C2c3oc(CO)cc(=O)c3Oc3nc4c(c(N)c32)CCCC4)cc1 (centres unmarked) : 7.57

---

Assay: in vitro
Format: cell-based
Conditions: human, HepG2 cells; 3 µM; percent of cell viability vs DMSO-treated control; read-out: HepG2 cell viability
Quick list: viability at 3 µM per entry.
Dear colleague, please return just the value in %, with no unit written.

[
  {
    "MOLECULE": "COc1ccc(C2c3oc(CO)cc(=O)c3Oc3nc4c(c(N)c32)CCCC4)cc1 (stereo not drawn)",
    "METRIC NAME": "viability at 3 µM",
    "OBSERVED RESULT": 96.1
  },
  {
    "MOLECULE": "Nc1c2c(nc3c1C(c1cccc(Br)c1)c1oc(CO)cc(=O)c1O3)CCCC2 (stereo not drawn)",
    "METRIC NAME": "viability at 3 µM",
    "OBSERVED RESULT": 104
  },
  {
    "MOLECULE": "COc1cccc(C2c3oc(CO)cc(=O)c3Oc3nc4c(c(N)c32)CCCC4)c1 (stereo not drawn)",
    "METRIC NAME": "viability at 3 µM",
    "OBSERVED RESULT": 98
  },
  {
    "MOLECULE": "Nc1c2c(nc3c1C(c1ccccc1F)c1oc(CO)cc(=O)c1O3)CCCC2 (stereo not drawn)",
    "METRIC NAME": "viability at 3 µM",
    "OBSERVED RESULT": 96.1
  }
]

Form: molecule = Nc1c2c(nc3c1C(c1ccc(F)cc1)c1oc(CO)cc(=O)c1O3)CCCC2 (stereo not drawn) ; viability at 3 µM = 95.9

Summary for this molecule, Nc1c2c(nc3c1C(c1cccc(Cl)c1)c1oc(CO)cc(=O)c1O3)CCCC2 (stereo not drawn) : viability at 3 µM is 101

// field: viability at 3 µM; key: COc1ccccc1C1c2oc(CO)cc(=O)c2Oc2nc3c(c(N)c21)CCCC3 (stereo not drawn) ; value = 103

viability at 3 µM reading for Nc1c2c(nc3c1C(c1c(Cl)cccc1Cl)c1oc(CO)cc(=O)c1O3)CCCC2 (stereo not drawn) : 102

Sample Nc1c2c(nc3c1C(c1ccccc1)c1oc(CO)cc(=O)c1O3)CCCC2 (stereo not drawn) ; viability at 3 µM observed: 94.9

The values you see were collected from paper PMC6263107.
